target: Factor X, P00742
Sequence (P00742 whole entry, looked up): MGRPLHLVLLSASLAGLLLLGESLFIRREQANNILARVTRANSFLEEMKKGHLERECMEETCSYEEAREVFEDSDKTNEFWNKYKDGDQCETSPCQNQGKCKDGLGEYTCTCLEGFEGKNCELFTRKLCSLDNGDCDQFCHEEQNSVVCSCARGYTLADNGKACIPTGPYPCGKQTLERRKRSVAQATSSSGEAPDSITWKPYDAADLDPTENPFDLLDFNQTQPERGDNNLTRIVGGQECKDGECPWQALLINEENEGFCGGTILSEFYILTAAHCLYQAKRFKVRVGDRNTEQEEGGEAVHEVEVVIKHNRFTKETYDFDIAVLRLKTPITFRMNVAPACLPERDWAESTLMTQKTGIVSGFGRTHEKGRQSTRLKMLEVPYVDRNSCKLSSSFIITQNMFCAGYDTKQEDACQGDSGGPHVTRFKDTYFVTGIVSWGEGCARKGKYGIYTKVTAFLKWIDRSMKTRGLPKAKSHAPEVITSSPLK
Experimental Endpoint: KM (µM)
Kindly answer with a numeric value in µM, unit omitted.

Request the reported KM associated with FIXa-Y155F/K247N/N249S/R318Y/R338E/R403E/E410N (protein) chain 1: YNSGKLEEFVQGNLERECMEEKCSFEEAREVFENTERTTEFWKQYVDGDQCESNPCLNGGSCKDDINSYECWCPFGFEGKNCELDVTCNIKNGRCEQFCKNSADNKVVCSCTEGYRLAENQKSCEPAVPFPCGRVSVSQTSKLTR chain 2: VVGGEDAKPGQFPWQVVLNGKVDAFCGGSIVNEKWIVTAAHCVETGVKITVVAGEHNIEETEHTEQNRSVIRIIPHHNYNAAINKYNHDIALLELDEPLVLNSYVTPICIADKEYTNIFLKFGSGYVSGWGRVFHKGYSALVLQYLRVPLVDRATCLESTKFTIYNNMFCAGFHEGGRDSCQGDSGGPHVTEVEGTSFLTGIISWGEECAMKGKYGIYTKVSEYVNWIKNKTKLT
0.0391

Now this one: FIXa-Y155F/K228N/R318Y/R338E/R403E/E410N (protein) chain 1: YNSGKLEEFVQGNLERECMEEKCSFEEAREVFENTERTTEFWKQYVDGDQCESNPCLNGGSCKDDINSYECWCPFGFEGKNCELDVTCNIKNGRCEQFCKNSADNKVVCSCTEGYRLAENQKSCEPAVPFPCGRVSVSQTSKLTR chain 2: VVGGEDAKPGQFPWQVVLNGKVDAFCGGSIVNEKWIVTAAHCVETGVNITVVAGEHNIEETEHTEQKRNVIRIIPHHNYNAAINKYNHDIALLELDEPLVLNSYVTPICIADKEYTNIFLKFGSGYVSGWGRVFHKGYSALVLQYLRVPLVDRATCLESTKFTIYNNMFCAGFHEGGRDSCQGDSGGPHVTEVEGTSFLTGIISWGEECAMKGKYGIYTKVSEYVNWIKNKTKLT
0.048
